system: T1, mouse thyroid-stimulating hormone receptor (TSHR) (mouse, UniProt P47750 22-764)
T1 construct: whole, on cells; Overexpressed on 293 cells; also called mouse TSHR; murine TSHR
T1 sequence (P47750 22-764): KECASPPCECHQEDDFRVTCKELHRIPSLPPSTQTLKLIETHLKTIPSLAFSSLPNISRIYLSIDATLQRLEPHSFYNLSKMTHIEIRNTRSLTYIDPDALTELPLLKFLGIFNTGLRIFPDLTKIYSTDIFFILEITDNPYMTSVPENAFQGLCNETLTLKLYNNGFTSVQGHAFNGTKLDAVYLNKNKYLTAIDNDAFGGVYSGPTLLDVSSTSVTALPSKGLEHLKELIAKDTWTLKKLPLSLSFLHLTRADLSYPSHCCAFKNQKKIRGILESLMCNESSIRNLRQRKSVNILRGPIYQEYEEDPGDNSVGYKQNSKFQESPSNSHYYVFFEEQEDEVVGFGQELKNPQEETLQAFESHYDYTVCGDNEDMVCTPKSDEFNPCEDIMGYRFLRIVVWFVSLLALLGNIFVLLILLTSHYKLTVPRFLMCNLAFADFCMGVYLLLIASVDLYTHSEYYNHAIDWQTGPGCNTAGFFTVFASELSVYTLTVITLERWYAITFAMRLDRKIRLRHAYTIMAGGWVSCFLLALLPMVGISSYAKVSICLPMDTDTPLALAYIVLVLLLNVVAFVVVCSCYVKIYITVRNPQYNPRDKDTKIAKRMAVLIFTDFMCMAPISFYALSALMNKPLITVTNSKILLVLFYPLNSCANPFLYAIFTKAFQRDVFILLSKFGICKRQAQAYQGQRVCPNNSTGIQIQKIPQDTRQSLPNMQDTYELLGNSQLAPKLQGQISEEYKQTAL
experiment: flow cytometry (FACS), 293 cells overexpressing mouse TSHR
endpoint: Maximum binding signal
// return a plain number; no unit text

Observe how each entry below is paired with its result.
• humanized antibody cAb01-VH3-DA-VL2 (antibody, human IgG4 S228P, kappa, V domains shown, Humanized from mAb001) VH: EVQLVESGGGLVKPGGSLRLSCAASGFTLSDYYIYWVRQAPGKRLEWVATISDAVIYTYYADSVKGRFTISRDNAKNSLYLQMNSLRAEDTAVYFCARAYGSSEVMDYWGQGTLVTVSS VL: EIVLTQSPATLSLSPGERATLSCSASSSVSYMHWYQQKPGQAPRRWIYDTSKLASGIPARFSGSGSGTDYTLTISSLEPEDFAVYYCQQWSSNPWTFGGGTKLEIKR = 129000
• humanized antibody cAb01-VH1-DA-VL3 (antibody, human IgG4 S228P, kappa, V domains shown, Humanized from mAb001) VH: EVQLVESGGGLVKPGGSLRLSCAASGFTLSDYYIYWVRQAPGKGLEWVSTISDAVIYTYYADSVKGRFTISRDNAKNSLYLQMNSLRAEDTAVYYCARAYGSSEVMDYWGQGTLVTVSS VL: EIVLTQSPATLSLSPGERATLSCSASSSVSYMHWYQQKPGQAPKRWIYDTSKLASGVPARFSGSGSGTDYTLTISSLEPEDFAVYYCQQWSSNPWTFGGGTKLEIKR = 106000
• humanized antibody cAb01-VH2-DA-VL2 (antibody, human IgG4 S228P, kappa, V domains shown, Humanized from mAb001) VH: EVQLVESGGGLVKPGGSLRLSCAASGFTLSDYYIYWVRQAPGKGLEWVATISDAVIYTYYADSVKGRFTISRDNAKNSLYLQMNSLRAEDTAVYFCARAYGSSEVMDYWGQGTLVTVSS VL: EIVLTQSPATLSLSPGERATLSCSASSSVSYMHWYQQKPGQAPRRWIYDTSKLASGIPARFSGSGSGTDYTLTISSLEPEDFAVYYCQQWSSNPWTFGGGTKLEIKR = 117000

Please turn your attention to the following entry.
Fill in the blank: the reported Maximum binding signal of humanized antibody cAb01-VH1-DA-VL2 (antibody, human IgG4 S228P, kappa, V domains shown, Humanized from mAb001) VH: EVQLVESGGGLVKPGGSLRLSCAASGFTLSDYYIYWVRQAPGKGLEWVSTISDAVIYTYYADSVKGRFTISRDNAKNSLYLQMNSLRAEDTAVYYCARAYGSSEVMDYWGQGTLVTVSS VL: EIVLTQSPATLSLSPGERATLSCSASSSVSYMHWYQQKPGQAPRRWIYDTSKLASGIPARFSGSGSGTDYTLTISSLEPEDFAVYYCQQWSSNPWTFGGGTKLEIKR is ____. 113000
